Test system: LNCaP tumor-transplanted mouse
Measurement description: Internal radioactivity distribution using LNCaP tumor-transplanted mouse
Type: in vivo
Condition context: 192 h after administration
Description: The animal test was performed in compliance with the guidelines of Kyoto University Animal Experiment Committee. […] LNCaP or PC-3 tumor-implanted mice were administered saline solutions (185 kBq, 100 μL) of [^111In]In-PSMA-DA1 or [^111In]In-PSMA-DB from the tail vein (n=3 each). […] Thereafter, blood and each organ were recovered, and the mass and radioactivity of the organs were measured. […]
# reported Heart; entries follow
Your answer is read as % ID/g, so omit the unit and give the number.

These recorded examples may help you get a feel for the data.
>>> endpoint_value("O=C([O-])CN(CCN(CCc1ccc(NC(=O)CCCCCNC(=O)CCC(=O)NCCCC[C@H](NC(=O)N[C@@H](CCC(=O)O)C(=O)O)C(=O)O)cc1)CCN(CC(=O)[O-])Cc1cccc(C(=O)[O-])n1)Cc1cccc(C(=O)[O-])n1.[111In+3] [[^111In]In-Neunpa-1, reference compound]")
0.22
>>> endpoint_value("O=C([O-])CN(CCN(CCc1ccc(NC(=O)[C@H](CCCCNC(=O)CCC(=O)NCCCC[C@H](NC(=O)N[C@@H](CCC(=O)O)C(=O)O)C(=O)O)NC(=O)CCCc2ccc(I)cc2)cc1)CCN(CC(=O)[O-])Cc1cccc(C(=O)[O-])n1)Cc1cccc(C(=O)[O-])n1.[111In+3] [[^111In]In-Neunpa-2]")
0.22
>>> endpoint_value("O=C(O)CC[C@H](NC(=O)N[C@@H](CCCCNC(=O)[C@H](Cc1ccc2ccccc2c1)NC(=O)[C@H]1CC[C@H](CNC(=O)CCC(C(=O)O)N2CCN(CC(=O)O)CCN(C(CCC(=O)N[C@@H](CCCCNC(=O)CCCc3ccc(I)cc3)C(=O)O)C(=O)O)CCN(CC(=O)O)CC2)CC1)C(=O)O)C(=O)O (stereo partly shown) [[^111In]In-PSMA-NAT-DA1, metal not drawn]")
1.19

Attention now turns to another entry.
-- ask Reported Heart, compound O=C([O-])CN1CCN(C(CCC(=O)NCCCC[C@H](NC(=O)N[C@@H](CCC(=O)O)C(=O)O)C(=O)O)C(=O)[O-])CCN(CC(=O)[O-])CCN(C(CCC(=O)Nc2ccccc2)C(=O)[O-])CC1.[111In+3] (stereo partly shown) [[^111In]In-PSMA-DB, reference compound] : ____
-- reply 0.33

###

Test system: LNCaP tumor-transplanted mouse
Measurement description: Internal radioactivity distribution using LNCaP tumor-transplanted mouse
Format: in vivo
Condition context: 1 h after administration
Listed below: Kidney values for each entry.
Give the value, in units of % ID/g, as a plain number.

-- ask Param item = O=C([O-])CN1CCN(C(CCC(=O)NCCCC[C@H](NC(=O)N[C@@H](CCC(=O)O)C(=O)O)C(=O)O)C(=O)[O-])CCN(CC(=O)[O-])CCN(C(CCC(=O)Nc2ccccc2)C(=O)[O-])CC1.[111In+3] (stereo partly shown) [[^111In]In-PSMA-DB, reference compound] ; retrieve measured Kidney.
-- reply 59.2

-- ask Try this molecule too: O=C([O-])CN(Cc1cccc(C(=O)[O-])n1)C[C@H](Cc1ccc(NC(=O)CCCCCNC(=O)CCC(=O)NCCCC[C@H](NC(=O)N[C@@H](CCC(=O)O)C(=O)O)C(=O)O)cc1)N(CC(=O)[O-])Cc1cccc(C(=O)[O-])n1.[111In+3] [[^111In]In-Octapa-1, reference compound]
-- reply 322

-- ask Input O=C([O-])CN(Cc1cccc(C(=O)[O-])n1)C[C@H](Cc1ccc(NC(=O)[C@H](CCCCNC(=O)CCC(=O)NCCCC[C@H](NC(=O)N[C@@H](CCC(=O)O)C(=O)O)C(=O)O)NC(=O)COCCOCCOCC(=O)N[C@@H](CCCCNC(=O)CCCc2ccc(I)cc2)C(=O)O)cc1)N(CC(=O)[O-])Cc1cccc(C(=O)[O-])n1.[111In+3] [[^111In]In-Octapa-3]
-- reply 57.1

-- ask Same again, this time with O=C(O)CC[C@H](NC(=O)N[C@@H](CCCCNC(=O)[C@H](Cc1ccc2ccccc2c1)NC(=O)[C@H]1CC[C@H](CNC(=O)CCC(C(=O)O)N2CCN(CC(=O)O)CCN(C(CCC(=O)N[C@@H](CCCCNC(=O)CCCc3ccc(I)cc3)C(=O)O)C(=O)O)CCN(CC(=O)O)CC2)CC1)C(=O)O)C(=O)O (stereo partly shown) [[^111In]In-PSMA-NAT-DA1, metal not drawn]
-- reply 41.5
